Each record here notes measured MIC.
# System: N. gonorrhoeae FA1090
# Experiment description: Liquid broth MIC in Fastidious broth
# Assay type: cell-based
# Conditions used: Neisseria gonorrhoeae; N. gonorrhoeae strain FA1090; Fastidious broth; read-out: Minimum Inhibitory Concentration, N. gonorrhoeae FA1090

Solved cases below.
CCN1CCN(C(=O)NC(C(=O)N[C@H]2Cc3cccc(C(=O)O)c3OB2O)c2ccc(O)c(Cl)c2F)C(=O)C1=O (stereo partly shown); < 0.125 mg/L
CCN1CCN(C(=O)NC(C(=O)N[C@H]2Cc3cccc(C(=O)O)c3OB2O)c2cccc(NC(=O)c3cccnc3)c2)C(=O)C1=O (stereo partly shown); 1 to 2 mg/L
CCN1CCN(C(=O)N[C@@H](C(=O)N[C@H]2Cc3cccc(C(=O)O)c3OB2O)c2ccc(C(=O)O)cc2)C(=O)C1=O (single isomer, unassigned); < 0.125 mg/L
NCCCN1CCN(C(=O)NC(C(=O)N[C@H]2Cc3cccc(C(=O)O)c3OB2O)c2c(F)cc(O)cc2F)C(=O)C1=O (stereo partly shown); 1 to 2 mg/L
NCCN1CCN(C(=O)N[C@@H](C(=O)N[C@H]2Cc3cccc(C(=O)O)c3OB2O)c2ccc(C(=O)O)cc2)C(=O)C1=O (single isomer, unassigned); 1 to 2 mg/L

QUERY: Record request: MIC value, item NCCN1CCN(C(=O)N[C@@H](C(=O)N[C@H]2Cc3ccc(F)c(C(=O)O)c3OB2O)c2c(F)cc(O)cc2F)C(=O)C1=O (single isomer, unassigned)
RESULT: 4 to 8 mg/L

QUERY: Record request: MIC value, item NCCN1CCN(C(=O)N[C@@H](C(=O)N[C@H]2Cc3cccc(C(=O)O)c3OB2O)c2cc(Cl)c(O)c(Cl)c2)C(=O)C1=O (single isomer, unassigned)
RESULT: 0.25 to 0.5 mg/L

QUERY: Record request: MIC value, item O=C(O)c1c(F)ccc2c1OB(O)[C@@H](NC(=O)[C@H](NC(=O)N1CCNC1=O)c1c(F)cc(O)c(O)c1Cl)C2 (single isomer, unassigned)
RESULT: 4 to 8 mg/L

QUERY: Record request: MIC value, item NCCN1CCN(C(=O)N[C@@H](C(=O)N[C@H]2Cc3cccc(C(=O)O)c3OB2O)c2cc(Cl)c(O)cc2Cl)C(=O)C1=O
RESULT: 4 to 8 mg/L

QUERY: Record request: MIC value, item CCN1CCN(C(=O)NC(C(=O)N[C@H]2Cc3cccc(C(=O)O)c3OB2O)c2cc(Cl)c(O)c(Cl)c2)C(=O)C1=O (stereo partly shown)
RESULT: 0.25 to 0.5 mg/L

Origin of the recorded values: patent US20230114728A1
